# ASSAY_DETAILS: MTT relative viability, PhTERT-SEAP (hTERT-BJ1) cells
# CONDITION_LABEL: human, hTERT-BJ1 cells
READOUT_NAME: viability at 48 h, 26 µM
Please answer in the form of a number followed by its unit of measurement.

// returns reported viability at 48 h, 26 µM for input CN(C)CCNc1cccc2c1C(=O)c1cccc(NCCN(C)C)c1C2=O
76%

###

# Test system: transcriptional activity of hTERT
# ASSAY_DETAILS: SEAP reporter assay of hTERT expression, PhTERT-SEAP (H1299)
# Assay type: cell-based, human
# CONDITION_LABEL: 2.0 μM, PhTERT-SEAP(hTERT-H1299)
READOUT_NAME: Relative SEAP activity (%)
Express your answer in %, writing the number without its unit.

{"columns": ["COMPOUND", "UNIT_DESCRIPTOR", "NUMBER"],
 "data": [
  ["Cc1cc(C(=O)Nc2ccc(NC(=O)c3cc(C)oc3C)c3c2C(=O)c2ccccc2C3=O)c(C)o1 [VI26]", "%", 104],
  ["O=C(Nc1ccc(NC(=O)c2ccc(F)cc2)c2c1C(=O)c1ccccc1C2=O)c1ccc(F)cc1 [VI30]", "%", 111],
  ["NCC1CC1CCC(=O)Nc1ccc(NC(=O)CCC2CC2CN)c2c1C(=O)c1ccccc1C2=O (centres unmarked) [VI36]", "%", 123],
  ["O=C(Nc1ccc(NC(=O)c2cccc(F)c2)c2c1C(=O)c1ccccc1C2=O)c1cccc(F)c1 [VI12]", "%", 102]
]}

Let's switch to this compound now.
// returns reported Relative SEAP activity (%) for input O=C(Nc1ccc(NC(=O)c2ccccc2F)c2c1C(=O)c1ccccc1C2=O)c1ccccc1F [VI10]
105

###

# Tested on: hepatitis B virus transfected hepatoma cell lines, HepG 2.2.15 cells
# ASSAY_DETAILS: Cytotoxicity assay, 2.2.15 cells
# Format: cell-based, human
# CONDITION_LABEL: 48 h of drug exposure
READOUT_NAME: IC50

Before answering, review these 3 worked examples.
{"columns": ["MOLECULE", "READOUT_NAME", "RESULT"],
 "data": [
  ["O=C1c2cccc(Nc3ccc(O)cc3)c2C(=O)c2cccc(Nc3ccc(O)cc3)c21 [IVq, 1,5-Bis(phenolamino)-anthraquinone]", "IC50", "> 20 µM"],
  ["CCNc1cccc2c1C(=O)c1c(NCC)cccc1C2=O [Va, 1,8-Bis(ethylamine)-anthraquinone]", "IC50", "> 20 µM"],
  ["O=C(CSc1ccccc1)Nc1ccc(NC(=O)CSc2ccccc2)c2c1C(=O)c1ccccc1C2=O [VI28]", "IC50", "> 20 µM"]
]}

// returns reported IC50 for input O=C(Nc1ccc(NC(=O)c2cc(F)cc(Cl)c2Cl)c2c1C(=O)c1ccccc1C2=O)c1cc(F)cc(Cl)c1Cl [VI23]
> 20 µM

###

# ASSAY_DETAILS: MTT relative viability, PCMV-SEAP (hTERT-BJ1) cells
# Type: cell-based
# CONDITION_LABEL: human, stable PCMV-SEAP reporter clone, 240 μM
READOUT_NAME: viability at 48 h, 240 µM (%)
Express your answer in %, writing the number without its unit.

// returns reported viability at 48 h, 240 µM for input CC(C)(C)C(=O)Oc1cccc2c1C(=O)c1cccc(OC(=O)C(C)(C)C)c1C2=O
103

###

# ASSAY_DETAILS: MTT relative viability, PhTERT-SEAP (hTERT-BJ1) cells
# CONDITION_LABEL: human
READOUT_NAME: viability at 48 h, 240 µM (%)
Express your answer in %, writing the number without its unit.

{"columns": ["COMPOUND", "viability at 48 h, 240 µM (%)"],
 "data": [
  ["CC(C)(C)C(=O)Oc1cccc2c1C(=O)c1cccc(OC(=O)C(C)(C)C)c1C2=O [IIId, 1,5-Bis(pivaloyloxy)-anthraquinone]", 100]
]}

Let's switch to this compound now.
// returns reported viability at 48 h, 240 µM for input O=C1c2cccc(SCC(O)CO)c2C(=O)c2cccc(SCC(O)CO)c21 (centres unmarked)
79

###

# ASSAY_DETAILS: MTT relative viability, PhTERT-SEAP (H1299) cells
# CONDITION_LABEL: human
READOUT_NAME: viability at 48 h, 2.1 µM (%)
Express your answer in %, writing the number without its unit.

{"columns": ["COMPOUND", "viability at 48 h, 2.1 µM (%)"],
 "data": [
  ["O=C1c2cccc(SCCCCCCO)c2C(=O)c2cccc(SCCCCCCO)c21 [IIe, 1,5-Bis(hydroxyhexylthio)-anthraquinone]", 99],
  ["Cc1ccccc1C(=O)Oc1cccc2c1C(=O)c1cccc(OC(=O)c3ccccc3C)c1C2=O", 72],
  ["Cc1cccc(C(=O)Oc2cccc3c2C(=O)c2cccc(OC(=O)c4cccc(C)c4)c2C3=O)c1", 26],
  ["O=C1c2ccccc2C(=O)c2c(NC(=O)C3CCCCC3)ccc(NC(=O)C3CCCCC3)c21", 104],
  ["O=C(Cc1ccccc1)Oc1cccc2c1C(=O)c1cccc(OC(=O)Cc3ccccc3)c1C2=O", 91],
  ["O=C(Nc1ccc(NC(=O)c2cccs2)c2c1C(=O)c1ccccc1C2=O)c1cccs1", 108],
  ["CCN(CC)CC(=O)Nc1ccc(NC(=O)CN(CC)CC)c2c1C(=O)c1ccccc1C2=O", 105]
]}

Let's switch to this compound now.
// returns reported viability at 48 h, 2.1 µM for input Cc1ccc(C(=O)Oc2cccc3c2C(=O)c2cccc(OC(=O)c4ccc(C)cc4)c2C3=O)cc1
61

###

# ASSAY_DETAILS: MTT relative viability, PhTERT-SEAP (H1299) cells
# CONDITION_LABEL: human
READOUT_NAME: viability at 48 h, 238 µM (%)
Express your answer in %, writing the number without its unit.

{"columns": ["COMPOUND", "NUMBER"],
 "data": [
  ["O=C(CCCl)Nc1ccc(NC(=O)CCCl)c2c1C(=O)c1ccccc1C2=O", 30]
]}

Let's switch to this compound now.
// returns reported viability at 48 h, 238 µM for input CC(Cl)C(=O)Nc1ccc(NC(=O)C(C)Cl)c2c1C(=O)c1ccccc1C2=O (centres unmarked)
11

###

# ASSAY_DETAILS: MTT relative viability, PhTERT-SEAP (H1299) cells
# CONDITION_LABEL: human
READOUT_NAME: viability at 48 h, 1.8 µM (%)
Express your answer in %, writing the number without its unit.

// returns reported viability at 48 h, 1.8 µM for input O=C1c2ccccc2C(=O)c2c(NC(=O)[C@@H]3C[C@H]3c3ccccc3)ccc(NC(=O)[C@@H]3C[C@H]3c3ccccc3)c21 (relative stereo)
101

###

# ASSAY_DETAILS: MTT relative viability, PhTERT-SEAP (H1299) cells
# CONDITION_LABEL: human
Here the recorded viability at 48 h, 28 µM is given for each entry.
Express your answer in %, writing the number without its unit.

{"columns": ["COMPOUND", "viability at 48 h, 28 µM / %"],
 "data": [
  ["CCC(=O)Oc1cccc2c1C(=O)c1cccc(OC(=O)CC)c1C2=O [IIIa, 1,5-Bis(propionyloxy)-anthraquinone]", 116],
  ["CCCSc1cccc2c1C(=O)c1cccc(SCCC)c1C2=O [IIc, 1,5-Bis(propylthio)-anthraquinone]", 44]
]}

// returns reported viability at 48 h, 28 µM for input CCCCNc1cccc2c1C(=O)c1cccc(NCCCC)c1C2=O [IVj, 1,5-Bis(butylamino)anthraquinone]
104

// returns reported viability at 48 h, 28 µM for input O=C1c2cccc(SCCO)c2C(=O)c2cccc(SCCO)c21 [IIb, 1,5-Bis(hydroxyethylthio)-anthraquinone]
29

// returns reported viability at 48 h, 28 µM for input CC(C)CNc1cccc2c1C(=O)c1cccc(NCC(C)C)c1C2=O
106

###

# Test system: non-small-cell lung cancer cells H1299
# ASSAY_DETAILS: MTT relative viability, PhTERT-SEAP (H1299) cells
# CONDITION_LABEL: 20 μM, PhTERT-SEAP(hTERT-H1299)
// returns 0.0 unless Relative MTT viability (%) is strictly below 70%, in which case 1.0

Here's what some known entries look like.
{"columns": ["COMPOUND", "LABEL"],
 "data": [
  ["O=C(Nc1ccc(NC(=O)c2ccc(F)cc2)c2c1C(=O)c1ccccc1C2=O)c1ccc(F)cc1 [VI30]", 0.0],
  ["NCC1CC1CCC(=O)Nc1ccc(NC(=O)CCC2CC2CN)c2c1C(=O)c1ccccc1C2=O (centres unmarked) [VI36]", 1.0],
  ["O=C(Nc1ccc(NC(=O)c2cccc(F)c2)c2c1C(=O)c1ccccc1C2=O)c1cccc(F)c1 [VI12]", 0.0]
]}

Consider now this further compound.
In the record for O=C(Nc1ccc(NC(=O)c2ccccc2F)c2c1C(=O)c1ccccc1C2=O)c1ccccc1F [VI10] , is Relative MTT viability (%) less than 70%?
0.0
